These entries and their values trace back to ChEMBL document CHEMBL1201862.

System: SF-295
Assay summary: NCI tumour cell line growth inhibition, 48 h
Calls of active or inactive are those of the source. Cut-off read from the data, not from the text of the source: active = GI50 up to about 1.1 µM and inactive = higher.
Outcome codes: active, inactive

{"Compound": "CCOc1ccc(N2C(=O)NC3(c4ccccc4)N(C)C(=O)N(C)C23c2ccccc2)cc1 (stereo unspecified)", "Classification": "inactive"}
{"Compound": "CC(C)(C)C1=Cc2cc3cc(C(C)(C)C)[nH]c(=O)c3cc2S(=O)(=O)N1", "Classification": "inactive"}
{"Compound": "Cn1c(N)c(/C=N/NC(=O)CC#N)c(=O)n(C)c1=O", "Classification": "inactive"}
{"Compound": "N#Cc1ccc(C(C2C(=O)NC(=O)NC2=O)C2C(=O)NC(=O)NC2=O)cc1", "Classification": "inactive"}
{"Compound": "O=C(O)Cn1ccc(=O)c2c([N+](=O)[O-])cccc21", "Classification": "inactive"}
{"Compound": "CC(C)NC(=O)OCc1c(COC(=O)NC(C)C)c(-c2ccc[n+](COC(=O)Cc3ccccc3)c2)n2c1CCC2", "Classification": "inactive"}
{"Compound": "O=C1CC(Cl)c2c1csc2Br (stereo unspecified)", "Classification": "inactive"}
{"Compound": "COC(=O)/C=C/c1ccc2c(c1)[C@H](C(=O)OC)[C@@H](c1ccc(O)cc1)O2", "Classification": "inactive"}
{"Compound": "CCOC(=O)C(C)c1nc2ccc(C(F)(F)F)cc2[nH]c1=O (stereo unspecified)", "Classification": "inactive"}
{"Compound": "O=S(=O)(c1ccc(/N=N/O)nc1)c1ccc2ccccc2c1", "Classification": "inactive"}
{"Compound": "O=C1NCCN1/N=C/c1c(Cl)n(-c2ccccc2)c2ccccc12", "Classification": "inactive"}
{"Compound": "C#CCC(O)c1ccccc1C(O)CC#C (stereo unspecified)", "Classification": "inactive"}
{"Compound": "NS(=O)(=O)c1nnc(NC(=O)CCC(=O)O)s1", "Classification": "inactive"}
{"Compound": "O=C1OC(CCCN2CCCCC2)(c2ccccc2)CC12CCCC2 (stereo unspecified)", "Classification": "inactive"}
{"Compound": "Nc1nc(Cl)cc(NCC2(CO)CCC2)n1", "Classification": "inactive"}
{"Compound": "COC1OC(OC)C2C(c3c(C)cc(C)cc3C)=NOC12 (stereo unspecified)", "Classification": "inactive"}
{"Compound": "O=C1C(=O)N(c2cccc(C(F)(F)F)c2)C(=O)C(=O)C1c1nc2ccccc2s1", "Classification": "inactive"}
{"Compound": "CC(=O)O[C@H]1C(=O)[C@@]2(C)[C@H]([C@H](OC(=O)c3cccc(C(F)(F)F)c3)[C@]3(O)C[C@H](OC(=O)[C@H](O)[C@@H](NC(=O)c4ccccc4)c4ccccc4)C(C)=C1C3(C)C)[C@]1(OC(C)=O)CO[C@@H]1C[C@@H]2O", "Classification": "active"}
{"Compound": "Cc1ccc2c(=O)cc(-c3cccc(F)c3)[nH]c2n1", "Classification": "active"}
{"Compound": "N#CC1CC(c2ccccc2)Nc2cc(Cl)ccc2N1 (stereo unspecified)", "Classification": "inactive"}
{"Compound": "NCCNCC(O)CO (stereo unspecified)", "Classification": "inactive"}
